Values from paper PMC2782731

Below: a set of entries, each annotated with reported Km.
# Substrate: CC1=C(/C=C/C(C)=C/C=C/C(C)=C/C=O)C(C)(C)CCC1
# experiment description: HPLC of retinol formed, microsomes of Sf9 cells
# Assay type: biochemical, Drosophila melanogaster
# condition details: apparent; 1 mM NADPH; BSA-solubilized substrate; ambient temperature; reduction
The answer should read as a number with its unit following.

protein: CG2070 (Drosophila melanogaster) (protein) MSAPTDYLFCPLAYGSALSAIGIYLLRQYMQGGQFTTKTNETGRVAIVTGCNQGIGKETVLELARRGATVYMACRDMKKCENARREIIKATNNQNIFARQLDLCSMKSIRNFAAGFKREQNKLHILINNAGIMDCPKMLTEDGFEMQIGVNHMGHFLLTLLLLDVLKSSAPSRVVVLSSIAHRFGRIKRDDLNSEKSYDRKMAYCQSKLANVLFTRELAKRLSGTGVTVNALHPGVVNTELFRNTPFLGSWFGKLLIAPIIWIFIKTARNGAQTTLYAALDPSLEKVSGRYFSDCKQKHVGSAAQYDDDAQFLWAESEKWTGINI
Km: 0.4 ± 0.1 µM
--
protein: CG30491 (Drosophila melanogaster) (protein) MSLFAFLKSRTAFWLSFTGTTTGLAFFVKDLMQGGQFTKETNETGKVFIVTGANTGIGKETVREIAKRGGTVYMACRNLKKCEEAREEIVLETKNKYVYCRQCDLASQESIRHFVAAFKREQEHLHVLINNAGVMRCPRSLTSDGIELQLGVNHMGHFLLTNLLLDLLKKSSPSRIVNVSSLAHTRGEINTGDLNSDKSYDEGKAYSQSKLANVLFTRELAKRLEGTNVTANALHPGVVDTEIIRHMGFFNNFFAGLFVKPLFWPFVKTPRNGAQTSLYVALDPELEKVTGQYFSDCKLKEMAPAATDTQTAKWLWAVSEKWTKPTMIKIQ
Km: 0.6 ± 0.1 µM
--
protein: CG2065 (Drosophila melanogaster) (protein) MQGGQFTKQTDETGKVFIVTGANTGIGKETVLEIAKRGGTVYMACRDMNRCEKARQDIIRETNNQNIFSRELDLSSLESIRKFAAGFKKEQDKLHVLINNAGVMHCPRTLTKDGFEMQLGVNHMGHFLLTHLLLDVLKKTAPSRIVNVSSLVHTQGFIKTADLNSEKSYSRIGAYSQSKLANVLFTRELAKRLEGTGVTTNSLHPGAVDTELSRNWKFLKHPFAQLLLKPLLWVLFKTPRNGAQTTLYAALDPALKDVSGLYFSDCQPKEVSAAAQDDKTGKFLWAESEKWTGVNSTKVD
Km: 0.7 ± 0.1 µM

Q: Fill in Km for record CG2064 (Drosophila melanogaster) (protein) MCIFIDCLLSPLIMWPATIGVGIYFLKEYMQGGKFTKDTDETGKVFIVTGANTGIGKETALEIARRGGTVYLACRDMNRCEKARKDIIKETNNQNIFSRELDLSSLDSIRKFVDGFKKEQPKLHVLINNAGVMRCPKTLTKDGYELQLGVNHIGHFLLTNLLLDVLKNSAPSRIVVVSSLAHARGSINVADLNSEKSYDEGLAYSQSKLANVLFTRELAKRLEGSGVTVNALHPGVVDTELARNWAFFQTNLVKFFLKPMIWPLLKTPKSGAQTSIYAALDPELKNISGLYFSDCKPKPVASGALDDKVAKFLWAESEKWTGLDKLEANN
Result: 4.2 ± 1.2 µM
